Molecular target: recombinant human dopamine transporter (Homo sapiens, UniProt Q01959)
Sequence (Q01959 whole entry): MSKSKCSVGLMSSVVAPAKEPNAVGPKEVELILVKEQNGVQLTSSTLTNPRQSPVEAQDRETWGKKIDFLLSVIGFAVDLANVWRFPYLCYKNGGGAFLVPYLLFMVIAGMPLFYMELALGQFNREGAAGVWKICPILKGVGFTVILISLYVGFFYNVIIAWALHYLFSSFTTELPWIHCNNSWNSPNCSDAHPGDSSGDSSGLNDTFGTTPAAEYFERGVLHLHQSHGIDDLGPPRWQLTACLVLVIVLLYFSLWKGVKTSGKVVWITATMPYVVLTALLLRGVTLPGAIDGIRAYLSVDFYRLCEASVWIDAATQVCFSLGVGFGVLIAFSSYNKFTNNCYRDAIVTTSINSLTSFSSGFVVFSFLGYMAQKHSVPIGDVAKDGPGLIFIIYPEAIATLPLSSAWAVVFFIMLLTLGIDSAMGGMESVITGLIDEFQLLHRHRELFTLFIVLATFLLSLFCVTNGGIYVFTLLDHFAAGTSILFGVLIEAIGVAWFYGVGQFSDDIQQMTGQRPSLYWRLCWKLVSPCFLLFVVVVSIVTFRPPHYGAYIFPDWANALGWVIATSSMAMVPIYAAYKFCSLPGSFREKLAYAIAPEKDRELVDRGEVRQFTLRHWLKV
Test: [3H]dopamine uptake by HEK-hDAT cells
MEASURED_QUANTITY: IC50

                              sample_smiles  measured_quantity   result
0  C=C[C@H]1C[N@@]2CC[C@H]1C[C@H]2[C@H](O)c1ccnc2ccc(OC)cc12               IC50  > 10 µM

* * *

Molecular target: recombinant human norepinephrine transporter (Homo sapiens, UniProt P23975)
Sequence (P23975 whole entry): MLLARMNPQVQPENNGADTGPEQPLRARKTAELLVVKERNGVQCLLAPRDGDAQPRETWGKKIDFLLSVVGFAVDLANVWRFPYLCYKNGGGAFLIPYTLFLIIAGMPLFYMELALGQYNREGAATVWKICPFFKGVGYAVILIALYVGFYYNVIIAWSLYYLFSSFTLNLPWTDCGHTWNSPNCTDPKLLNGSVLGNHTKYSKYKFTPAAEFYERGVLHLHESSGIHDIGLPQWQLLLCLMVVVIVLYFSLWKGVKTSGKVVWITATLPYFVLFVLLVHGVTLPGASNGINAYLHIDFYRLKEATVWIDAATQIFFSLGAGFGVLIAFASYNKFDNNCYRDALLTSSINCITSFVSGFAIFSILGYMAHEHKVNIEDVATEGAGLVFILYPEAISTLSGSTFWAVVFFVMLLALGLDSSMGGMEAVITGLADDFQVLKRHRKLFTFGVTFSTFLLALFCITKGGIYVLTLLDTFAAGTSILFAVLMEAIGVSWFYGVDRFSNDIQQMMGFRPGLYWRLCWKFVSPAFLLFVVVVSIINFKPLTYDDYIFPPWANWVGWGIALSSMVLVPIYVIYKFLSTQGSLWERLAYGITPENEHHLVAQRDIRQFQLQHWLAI
Assay: cell-based
MEASURED_QUANTITY: IC50

In [3]: df
Out[3]:
                                   compound                            assayed_system  measured_quantity   result
0  C=C[C@H]1C[N@@]2CC[C@H]1C[C@H]2[C@H](O)c1ccnc2ccc(OC)cc12 [Quinine]  recombinant human norepinephrine transporter (Homo sapiens, UniProt P23975)               IC50  > 10 µM

* * *

Reported Ki is given for each of the following compounds.
Target: human D4.4 receptor (Homo sapiens, UniProt P21917)
Sequence (P21917 1-419): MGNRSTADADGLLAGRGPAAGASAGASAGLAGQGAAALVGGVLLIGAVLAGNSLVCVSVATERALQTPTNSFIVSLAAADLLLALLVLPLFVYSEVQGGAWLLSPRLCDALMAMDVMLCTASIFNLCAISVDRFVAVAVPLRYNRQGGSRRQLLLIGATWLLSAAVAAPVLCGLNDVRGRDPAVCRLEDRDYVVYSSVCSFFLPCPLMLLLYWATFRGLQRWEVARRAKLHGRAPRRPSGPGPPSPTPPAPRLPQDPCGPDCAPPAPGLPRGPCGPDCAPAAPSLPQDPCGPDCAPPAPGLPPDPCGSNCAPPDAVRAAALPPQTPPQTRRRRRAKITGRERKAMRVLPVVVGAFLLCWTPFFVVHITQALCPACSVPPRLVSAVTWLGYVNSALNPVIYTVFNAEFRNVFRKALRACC
Experiment: biochemical
Format: binding
Details: read-out: D4.4 [3H]YM 09151-2 Ki; in μM
MEASURED_QUANTITY: Ki

>>> print(df.to_string())
                                   compound   result
0  OC(c1cc(C(F)(F)F)nc2c(C(F)(F)F)cccc12)C1CCCCN1 (single isomer, unassigned; (-)) [(−)-Mefloquine]  > 10 µM
1  O[C@H](c1cc(C(F)(F)F)nc2c(C(F)(F)F)cccc12)[C@@H]1CCCCN1 [(+)-Mefloquine]  > 10 µM

* * *

Molecular target: recombinant human norepinephrine transporter (Homo sapiens, UniProt P23975)
Assay: biochemical
Format: binding
Details: read-out: Norepinephrine transporter, inhibition of [125I]RTI-55 binding Ki (nM) ± SEM
MEASURED_QUANTITY: Ki (nM)

>>> print(df.to_string())
                                   compound  quantitative_result
0  CCN(CC)C(=O)[C@@H]1C=C2c3cccc4[nH]cc(c34)C[C@H]2N(C)C1 [LSD, lysergic acid diethylamide]                 5600
